# Lookup of reported pIC50 keyed by entry
Molecular target: human TYK2 (Homo sapiens, UniProt P29597)
Construct: catalytic domain (amino acids 871-1187; catalog number 08-147)
Sequence (P29597 871-1187): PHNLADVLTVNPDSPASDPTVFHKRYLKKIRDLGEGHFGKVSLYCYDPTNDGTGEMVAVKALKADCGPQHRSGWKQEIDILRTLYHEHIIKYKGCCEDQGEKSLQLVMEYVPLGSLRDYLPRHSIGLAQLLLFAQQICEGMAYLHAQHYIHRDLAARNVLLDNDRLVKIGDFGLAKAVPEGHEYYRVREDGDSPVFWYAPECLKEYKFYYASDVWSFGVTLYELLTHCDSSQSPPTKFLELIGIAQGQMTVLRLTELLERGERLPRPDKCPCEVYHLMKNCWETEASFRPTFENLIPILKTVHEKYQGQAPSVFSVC
Assay: TYK2 inhibition assay
Conditions: recombinant human TYK2 catalytic domain, polyGT substrate
pIC50: −log10 of the molar value.

Ask: # query: pIC50 of entry CCc1cc(-c2noc(COC)n2)ccc1N(C)c1cc2c(cn1)ncn2C
Reply: 7.00 to 11.00

Ask: # query: pIC50 of entry COC(=O)c1ccc(N(C)c2cc3c(cn2)ncn3C)c(C)c1
Reply: < 6.00

Ask: # query: pIC50 of entry CCc1cc(C2=CCN(C(=O)[C@H](C)O)CC2)ccc1N(C)c1cc2c(cn1)ncn2C
Reply: 7.00 to 11.00

Ask: # query: pIC50 of entry CCc1cc(CNC(=O)C(F)F)c(F)cc1N(C)c1cc2c(cn1)ncn2C
Reply: 6.30 to 7.00

Ask: # query: pIC50 of entry CN(c1cc2c(cn1)ncn2C)c1ccc(C2CN(CC(F)F)C2)cc1OC(F)F
Reply: 6.00 to 6.30

Ask: # query: pIC50 of entry CCc1cc(C2=CCN(C(=O)C3(O)CC3)CC2)ccc1N(C)c1cc2c(cn1)ncn2C
Reply: 7.00 to 11.00

Ask: # query: pIC50 of entry CCc1cc(C2=CCN(C(C)=O)CC2)ccc1N(C)c1cc2c(cn1)ncn2C
Reply: 7.00 to 11.00

Ask: # query: pIC50 of entry CCc1cc(C2=CCN(C(=O)NC#N)CC2)ccc1N(C)c1cc2c(cn1)ncn2C
Reply: 7.00 to 11.00
